As shown below, each of these compounds has a reported hERG current change (%, negative = inhibition) at 10uM value.
# EXPERIMENTAL_TARGET: human ether-à-go-go-related gene (hERG) potassium channel (human, UniProt Q12809);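 note: peak tail current of the secondary pulse compared with the same well before compound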
# Sequence (Q12809 whole entry, looked up): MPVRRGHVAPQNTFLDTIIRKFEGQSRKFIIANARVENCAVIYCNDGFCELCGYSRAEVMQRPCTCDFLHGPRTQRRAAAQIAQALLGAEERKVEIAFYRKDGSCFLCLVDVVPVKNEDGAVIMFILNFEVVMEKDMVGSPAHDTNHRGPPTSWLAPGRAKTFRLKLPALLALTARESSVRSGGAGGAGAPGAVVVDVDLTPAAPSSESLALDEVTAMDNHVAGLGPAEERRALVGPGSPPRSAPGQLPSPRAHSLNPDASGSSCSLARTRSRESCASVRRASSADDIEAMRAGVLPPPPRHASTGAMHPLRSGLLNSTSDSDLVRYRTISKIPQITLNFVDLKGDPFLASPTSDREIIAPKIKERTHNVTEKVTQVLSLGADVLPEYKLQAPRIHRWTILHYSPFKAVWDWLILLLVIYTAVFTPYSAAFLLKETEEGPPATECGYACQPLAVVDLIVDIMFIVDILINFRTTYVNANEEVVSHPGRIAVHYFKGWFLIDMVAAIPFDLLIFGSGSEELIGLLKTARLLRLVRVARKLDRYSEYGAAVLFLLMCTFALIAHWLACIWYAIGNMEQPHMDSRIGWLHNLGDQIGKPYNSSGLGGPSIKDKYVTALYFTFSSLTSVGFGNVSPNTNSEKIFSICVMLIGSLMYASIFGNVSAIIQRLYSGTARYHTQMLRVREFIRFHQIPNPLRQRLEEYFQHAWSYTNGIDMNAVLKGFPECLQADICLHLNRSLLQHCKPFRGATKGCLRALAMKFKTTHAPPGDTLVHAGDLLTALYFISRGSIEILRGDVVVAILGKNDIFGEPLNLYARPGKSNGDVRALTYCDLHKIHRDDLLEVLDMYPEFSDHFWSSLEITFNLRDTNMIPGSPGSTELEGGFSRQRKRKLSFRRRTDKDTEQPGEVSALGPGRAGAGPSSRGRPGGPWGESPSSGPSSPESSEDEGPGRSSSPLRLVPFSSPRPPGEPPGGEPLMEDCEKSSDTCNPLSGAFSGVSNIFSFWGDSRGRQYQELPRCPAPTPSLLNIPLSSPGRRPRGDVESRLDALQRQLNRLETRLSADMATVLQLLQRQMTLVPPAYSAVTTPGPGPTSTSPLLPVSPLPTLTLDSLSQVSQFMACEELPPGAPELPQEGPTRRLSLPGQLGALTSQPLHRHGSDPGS
# ASSAY_DETAILS: primary screen, population patch clamp on CHO cells stably expressing hERG; higher = less effect of the substance
Hit rate of the full screen: of about 310,000 compounds, about 14,000 (4.5%) showed an effect of 50% or more. Effects have a minus sign here. Many of the other results were omitted from the sample, so strong results are more common in it than they were.
I only need the number, in %, no unit after it.

Solved entries (count: 5):
COMPOUND	REPORTED_MEASUREMENT
Cc1ccccc1-c1nnc(-c2ccccc2)o1	-6.58
CCOC(=O)Cc1csc(SCC(=O)c2c(N)n(CC(C)C)c(=O)n(C)c2=O)n1	-2.23
O=C(NC1CCCC1)c1cc(S(=O)(=O)N2CCOCC2)c(Cl)cc1Cl	-8.15
CCCCN(CC)CCCNC(=O)C1c2ccccc2C(=O)N(C)C1c1cn(C)c2ccccc12 (centres unmarked)	-72.7
c1ccc2c(c1)Cc1ccccc1O2	14.7

# input Consider the compound CN(C)S(=O)(=O)c1cccc(C(=O)Nc2ccc(S(=O)(=O)N3CCCC3)cc2)c1 and give its measured hERG current change (%, negative = inhibition) at 10uM.
# output 25.5

# input Consider the compound COc1cccc(NC(=S)NCCc2ccccn2)c1 and give its measured hERG current change (%, negative = inhibition) at 10uM.
# output 7.98

# input Consider the compound CC(C)(C)NS(=O)(=O)c1ccc(OCC(=O)NCCC2=CCCCC2)cc1 and give its measured hERG current change (%, negative = inhibition) at 10uM.
# output -14.1

# input Consider the compound C#CCOCCOCCOCCNc1nc(N2CCN(C(=O)CCCCCCCCCCNC(=O)Cn3cc(C[C@@H](C)O)nn3)CC2)nc(N2CCN(C(=O)CCCCCCCCCCNC(=O)[C@@H](CCSC)n3cc(CCO)nn3)CC2)n1 and give its measured hERG current change (%, negative = inhibition) at 10uM.
# output 10.1

# input Consider the compound Cn1nnc2ccccc2c1=O and give its measured hERG current change (%, negative = inhibition) at 10uM.
# output 12.5

# input Consider the compound Cc1ccccc1S(=O)(=O)N1CC(C(=O)O)=CC[C@H]1c1ccc(Cl)cc1 and give its measured hERG current change (%, negative = inhibition) at 10uM.
# output 15.8

# input Consider the compound CC(C)(C)NC(=O)c1cnn2c1NC(c1ccc(F)cc1)CC2C(F)(F)F (centres unmarked) and give its measured hERG current change (%, negative = inhibition) at 10uM.
# output 2.13

# input Consider the compound CC(C)c1ccc(C2NC(=O)NC3=C2CCc2ccccc23)cc1 (centres unmarked) and give its measured hERG current change (%, negative = inhibition) at 10uM.
# output -33.5

# input Consider the compound CCN(CC)CCCNC(=O)C1c2ccccc2C(=O)N(C)C1c1ccc(OC)cc1 (centres unmarked) and give its measured hERG current change (%, negative = inhibition) at 10uM.
# output 6.8

# input Consider the compound Cc1cccc(-n2c(-c3ccccc3)c[nH]c2=S)c1C and give its measured hERG current change (%, negative = inhibition) at 10uM.
# output 14.6

# input Consider the compound COc1ccc2c(C)c(C)c(=O)oc2c1OC and give its measured hERG current change (%, negative = inhibition) at 10uM.
# output 3.4

# input Consider the compound CC1CC(C)CN(C(=O)CCCn2c(=O)c3cccn3c3cccnc32)C1 (centres unmarked) and give its measured hERG current change (%, negative = inhibition) at 10uM.
# output -11

# input Consider the compound COc1ccccc1N1C(=O)CC(Sc2ccccc2N)C1=O (centres unmarked) and give its measured hERG current change (%, negative = inhibition) at 10uM.
# output 0.966

# input Consider the compound COc1ccc(CNC(=O)COC(=O)c2ccc3ncsc3c2)cc1OC and give its measured hERG current change (%, negative = inhibition) at 10uM.
# output 14.5

# input Consider the compound CCOC(=O)C1=C2SCCN2C(=O)C(C#N)C1(C)C (centres unmarked) and give its measured hERG current change (%, negative = inhibition) at 10uM.
# output 7.34

Source of measurements: paper PMC4336329
